- Tested on: Human immunodeficiency virus 1
- assay_protocol: Antiviral activity against multidrug-resistant HIV1/C with protease mutation in phytohemagglutininin-activated PBMC assessed as inhibition of p24G protein production
- Format: functional, organism-based
Reported IC50 values follow for various molecules
measurement_kind: IC50 (µM)

| smiles_code | unit_text | result_modifier | test_value |
| --- | --- | --- | --- |
| CC(C)CN(C[C@@H](O)[C@H](Cc1ccccc1)NC(=O)O[C@H]1CCOC1)S(=O)(=O)c1ccc(N)cc1 | µM | = | 0.23 |
| CC(C)c1nc(CN(C)C(=O)N[C@H](C(=O)N[C@@H](Cc2ccccc2)C[C@H](O)[C@H](Cc2ccccc2)NC(=O)OCc2cncs2)C(C)C)cs1 | µM | > | 1 |
| COc1ccc(S(=O)(=O)N(CC(C)C)C[C@@H](O)[C@H](Cc2ccccc2)NC(=O)O[C@@H]2CCOCOC2)cc1 | µM | = | 0.21 |
| COc1ccc(S(=O)(=O)N(CC(C)C)C[C@@H](O)[C@H](Cc2ccccc2)NC(=O)OC2COCOC2)cc1 | µM | = | 0.16 |
| CC(C)(C)NC(=O)[C@@H]1CN(Cc2cccnc2)CCN1C[C@@H](O)C[C@@H](Cc1ccccc1)C(=O)N[C@H]1c2ccccc2C[C@H]1O | µM | > | 1 |
